B1: VAMP4 (parent)
chain: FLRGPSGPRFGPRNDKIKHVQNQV

# Variants of: B1
# experimentalProtocol: protein stability index of a GFP-peptide fusion (GPS, HEK-293T) (PSI 1-6); higher = more stable;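 further: lentivirally expressed fusions sorted by FACS into six bins by GFP to DsRed ratio, PSI derived from sequencing read proportions per bin multiplied by bin number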
# testSettings: c terminus: a fixed tail appended
measurementName: protein stability index
// print number alone

Before answering, review these 2 worked examples.
>>> observedresult("FLRGPSGPRIGPRNDKIKHVQNQV [F10I]")
2.99
>>> observedresult("FLRGPSGPLFGPRNDKIKHVQNQV [R9L]")
2.06

Return reported protein stability index; argument: FLRGPSSPRFGPRNDKIKHVQNQV [G7S] 2.77

I would be grateful if you could share the reported protein stability index for FLRGPSGPRFGPRNEKIKHVQNQV [D15E] . 3
